Each recorded value in this set is attributed to the supplement of paper PMC10011410.

System: AmpC beta-lactamase (E. coli)
Assay: AmpC inhibition relative to DMSO; higher = more inhibition
Conditions: 100 µM; detergent: 0.01% Triton X-100
Measure: AmpC inhibition

O=C1C(Cl)=C(NCCN2CCOCC2)C(=O)c2ncccc21    6.05%
CC(C)([C@](C1=O)(C2=O)C/C=C(C)\C)[C@@H](C[C@]31C[C@@H](C(C)(OC3=C2C(C4=CC(O)=C(C=C4)O)=O)C)C/C=C(C)\C)C/C=C(C)\C    2.77%
COc1ccc(/C(Cl)=C(\C=O)c2ccc(OC)cc2)cc1    -4.79%
COc1ccc(/C(Cl)=C(/C=O)c2ccc(OC)cc2)cc1    3.87%

For each of the compounds below, note its AmpC inhibition.
1. COc1cc(/C=C/C(=O)CC(=O)/C=C/c2ccc(O)c(OC)c2)ccc1O
2. O=C(NNS(=O)(=O)c1ccccc1F)c1cc(F)cc(-c2ccccn2)c1
3. CC(Cc1ccc(O)c(O)c1)C(C)Cc1ccc(O)c(O)c1 (centres undefined)

["-2.46%", "0.832%", "-4.88%"]

For each of the compounds below, note its AmpC inhibition.
1. C=C1C(=O)O[C@H](CCC)[C@H]1C(=O)O
2. COC1=CC=C(S(=O)(O/N=C2C=C(C(C(C)=C\2)=O)C)=O)C=C1
3. c1cc(SSc2ccns2)sn1
4. CNC(=O)Nc1ccc2c(c1)CC[C@@]21OC(=O)N(CC(=O)N(Cc2ccc(F)cc2)[C@@H](C)C(F)(F)F)C1=O
5. CCCCCCCCCCCC1=C(O)C(=O)C=C(O)C1=O
6. CC1=NN(c2ccc(C(=O)O)cc2)C(=O)/C1=C\c1ccc(-c2cc(C)c(C)cc2[N+](=O)[O-])o1

1: 2.9%; 2: 8.37%; 3: 9.28%; 4: -3%; 5: 5.91%; 6: 5.65%

For each of the compounds below, note its AmpC inhibition.
1. O=C(O[C@@H]1Cc2c(O)cc(O)cc2O[C@@H]1c1cc(O)c(O)c(O)c1)c1cc(O)c(O)c(O)c1
2. CCCCCCCCCCCCCCCc1cccc(O)c1C(=O)O
3. O=C(OCC)/C(C(OCC)=O)=C\CCCCCCCCCCCCCC
4. CCCCCOc1ccc(/C=C\c2cccc(O)c2C(=O)O)cc1

["1.23%", "7.84%", "1.39%", "14%"]

For each of the compounds below, note its AmpC inhibition.
1. ClC1=CC=C(C2=CSC(N/N=C3CCCC/3)=N2)C=C1
2. O=C(NNS(=O)(=O)c1ccccc1)c1cc(-c2ccnnc2)ccc1F

1: 7.09%; 2: 12.2%

----------
System: AmpC beta-lactamase (E. coli)
Experiment: AmpC inhibition relative to DMSO; higher = more inhibition
Conditions: 4 µM; detergent: no detergent
Measure: AmpC inhibition (%)
Answers are plain numbers, in %.

Known AmpC inhibition results, listed for orientation:
CNC(=O)Nc1ccc2c(c1)[C@@]1(CC2)OC(=O)N(CC(=O)N(Cc2ccc(F)cc2)[C@@H](C)C(F)(F)F)C1=O    2.44
O=C1/C(=C/c2ccc(O)c(Br)c2)CCC/C1=C\c1ccc(O)c(Br)c1    7.44
O=C(NNS(=O)(=O)c1ccccc1)c1cc(-c2ccnnc2)ccc1F    2.19
C=C1C(=O)O[C@H](CCC)[C@H]1C(=O)O    2.33
Cl.Cl.O=C(O)Cn1nnc(-c2ccc(CN(CCCCOc3ccc(CN4CCCC4)cc3)CCc3ccccc3)cc2)n1    -18.8

For each of the compounds below, note its AmpC inhibition.
1. CCCCCCCCCCCCCCCc1cccc(O)c1C(=O)O
2. COc1cc(/C=C/c2cc(/C=C/c3ccc(O)c(OC)c3)n(-c3ccc(C(=O)[O-])cc3)n2)ccc1O.[Na+]
3. O=C(NNS(=O)(=O)c1ccccc1F)c1cc(F)cc(-c2ccccn2)c1
4. c1cc(SSc2ccns2)sn1

1. 25.7
2. -4.8
3. 1.11
4. -0.684

For each of the compounds below, note its AmpC inhibition.
1. CC(C)([C@](C1=O)(C2=O)C/C=C(C)\C)[C@@H](C[C@]31C[C@@H](C(C)(OC3=C2C(C4=CC(O)=C(C=C4)O)=O)C)C/C=C(C)\C)C/C=C(C)\C
2. COc1ccc(/C(Cl)=C(\C=O)c2ccc(OC)cc2)cc1
3. CNC(=O)Nc1ccc2c(c1)CC[C@@]21OC(=O)N(CC(=O)N(Cc2ccc(F)cc2)[C@@H](C)C(F)(F)F)C1=O
4. CCCCCCCCCCCC1=C(O)C(=O)C=C(O)C1=O

13.3
17.8
-1.32
-3.71

For each of the compounds below, note its AmpC inhibition.
1. COC1=CC=C(S(=O)(O/N=C2C=C(C(C(C)=C\2)=O)C)=O)C=C1
2. O=C1C(Cl)=C(NCCN2CCOCC2)C(=O)c2ncccc21
3. CCCCCCCc1ccc(CCc2cccc(O)c2C(=O)O)cc1

[-3.63, 0.538, -4.68]

----------
Give measured AmpC inhibition for each item. Keep answers brief.
System: AmpC beta-lactamase (E. coli)
Experiment: AmpC inhibition relative to DMSO; higher = more inhibition
Conditions: 33 µM; detergent: no detergent

Known AmpC inhibition results, listed for orientation:
O=C1/C(=C/c2ccc(O)c(Br)c2)CCC/C1=C\c1ccc(O)c(Br)c1    78.6%
CC(C)([C@](C1=O)(C2=O)C/C=C(C)\C)[C@@H](C[C@]31C[C@@H](C(C)(OC3=C2C(C4=CC(O)=C(C=C4)O)=O)C)C/C=C(C)\C)C/C=C(C)\C    93.2%
COC1=CC=C(S(=O)(O/N=C2C=C(C(C(C)=C\2)=O)C)=O)C=C1    0.996%

For each of the compounds below, note its AmpC inhibition.
1. CCCCCCCCCCCC1=C(O)C(=O)C=C(O)C1=O
2. CNC(=O)Nc1ccc2c(c1)[C@@]1(CC2)OC(=O)N(CC(=O)N(Cc2ccc(F)cc2)[C@@H](C)C(F)(F)F)C1=O
3. O=C(OCC)/C(C(OCC)=O)=C\CCCCCCCCCCCCCC
4. CCCC1(c2ccccc2)NC(=O)N(CC(=O)N(C)Cc2c(F)cccc2Cl)C1=O (stereo not drawn)

60.9%
-5.13%
50.3%
5.75%

Which AmpC inhibition reading was recorded for the compound COc1cc(/C=C/c2cc(/C=C/c3ccc(O)c(OC)c3)n(-c3ccc(C(=O)[O-])cc3)n2)ccc1O.[Na+] ?
-38.3%

----------
Test system: AmpC beta-lactamase (E. coli)
Experiment: AmpC inhibition relative to DMSO; higher = more inhibition
Details: 100 µM; detergent: no detergent
Give measured AmpC inhibition for each item. Keep answers brief.
One number for each entry, in %.

For each of the compounds below, note its AmpC inhibition.
1. COc1ccc(/C(Cl)=C(\C=O)c2ccc(OC)cc2)cc1
2. O=C(NNS(=O)(=O)c1ccccc1)c1cc(-c2ccnnc2)ccc1F
3. CC(Cc1ccc(O)c(O)c1)C(C)Cc1ccc(O)c(O)c1 (stereo unspecified)
4. COc1cc(/C=C/C(=O)CC(=O)/C=C/c2ccc(O)c(OC)c2)ccc1O
5. c1cc(SSc2ccns2)sn1
6. COc1cc(/C=C/c2cc(/C=C/c3ccc(O)c(OC)c3)n(-c3ccc(C(=O)[O-])cc3)n2)ccc1O.[Na+]
7. C=C(C)[C@@H](CC=C(C)C)C[C@@]12C[C@@H](CC=C(C)C)C(C)(C)[C@@](CC=C(C)C)(C(=O)/C(=C(\O)c3ccc(O)c(O)c3)C1=O)C2=O

1: 1.57; 2: 11.9; 3: 86; 4: 67.3; 5: 11; 6: -2.93; 7: 97.9

For each of the compounds below, note its AmpC inhibition.
1. CCCCCOc1ccc(/C=C\c2cccc(O)c2C(=O)O)cc1
2. CNC(=O)Nc1ccc2c(c1)CC[C@@]21OC(=O)N(CC(=O)N(Cc2ccc(F)cc2)[C@@H](C)C(F)(F)F)C1=O
3. CCCCCCCCCCCCCCCc1cccc(O)c1C(=O)O
4. O=C(OCC)/C(C(OCC)=O)=C\CCCCCCCCCCCCCC
5. CNC(=O)Nc1ccc2c(c1)[C@@]1(CC2)OC(=O)N(CC(=O)N(Cc2ccc(F)cc2)[C@@H](C)C(F)(F)F)C1=O
6. O=C1C(Cl)=C(NCCN2CCOCC2)C(=O)c2ncccc21

1: 99.2; 2: -3.55; 3: 99.5; 4: 86.8; 5: -1.81; 6: -4.13

For each of the compounds below, note its AmpC inhibition.
1. ClC1=CC=C(C2=CSC(N/N=C3CCCC/3)=N2)C=C1
2. COc1ccc(/C(Cl)=C(/C=O)c2ccc(OC)cc2)cc1
3. CCCCCCCCCCCC1=C(O)C(=O)C=C(O)C1=O

1: 1.99; 2: 12.1; 3: 92.1
